Recorded values, source ChEMBL document CHEMBL2169878.

Tested on: Salmonella typhimurium
Test: Mutagenicity against Salmonella typhimurium TA98 assessed as revertants at 24 uM incubated for 90 mins followed by drug washout measured after 2 days relative to positive control
Type: toxicity, organism-based
Conditions: salmonella enterica subsp. enterica serovar typhimurium, 1.5 h
Below, each entry is listed with its recorded Activity.
The reply should be a number in %, with the unit left off.

>>> recorded_value("Clc1ccc(C(Nc2ccnc3cc(Cl)ccc23)c2ccc(CN3CCNCC3)cc2)cc1 (racemic)")
4
>>> recorded_value("COc1ccc2nccc(NC(c3cccc(Cl)c3)c3ccc(CN4CCCC4)c(Cl)c3)c2c1 (racemic)")
3
>>> recorded_value("Clc1ccc(C(Nc2ccnc3cc(Cl)ccc23)c2ccc(CN3CCCC3)c(Cl)c2)cc1 (racemic)")
10

In: Find the recorded Activity belonging to Clc1ccc2c(NC(c3ccccc3)(c3ccc(CN4CCCC4)c(Cl)c3)c3ccc(CN4CCCC4)c(Cl)c3)ccnc2c1 and report it.
Out: 5
